Each entry below carries its reported TGI.
- Tested on: SNB-75 CNS
- test_protocol: NCI tumour cell line growth inhibition, 48 h

Study these solved cases before continuing.
[[record]]
compound = "COc1ccc(-c2nnc(CCCCCCCCc3nnc(-c4ccc(OC)cc4)n3N)n2N)cc1"
result = "> 66.4 µM"

[[record]]
compound = "CCO/C=C1\\N=C(C(Cl)c2ccccc2)OC1=O (stereo not drawn)"
result = "> 100 µM"


Here is another compound to look at.
[ask] Please look up its TGI: COc1ccc(-c2nnc(-c3ccncc3)o2)cc1
[reply] > 100 µM

====

- Test system: SN12C renal
- test_protocol: NCI tumour cell line growth inhibition, 48 h
Each entry below carries its reported TGI.

[[record]]
molecule = "O=C(NCCCCCCNC(=O)n1cc(F)c(=O)[nH]c1=O)NCCCOCCOCCOCCOCCOCCOCCOCCOCCOCCOCCOCCOCCOCCOCCOCCOCCOCCOCCOCCOCCOCCCNC(=O)C(O)C(O)C(OC1OC(CO)C(O)C(O)C1O)C(O)CO (centres undefined)"
study_target = "SN12C renal"
measurement_label = "TGI"
result = "> 100 µM"

[[record]]
molecule = "COc1ccc([I+]c2ccccc2)cc1"
study_target = "SN12C renal"
measurement_label = "TGI"
result = "> 100 µM"

[[record]]
molecule = "Cc1cccc(Cl)c1NC(=O)c1cnc(Nc2cc(N3CCOCC3)cc(N3CCOCC3)c2)s1"
study_target = "SN12C renal"
measurement_label = "TGI"
result = "> 10 µM"


[ask] Please look up its TGI: N/C(=N\N=C\c1cc2c(cc1Cl)OCO2)NO
[reply] > 100 µM
